Tested on: A375 cells
assay.info: Tumor cell line proliferation assay (CellTiter Glo), A375
Assay type: cell-based
cond: Homo sapiens, A-375, 96 h, read-out: A375 (V599E) Cell Proliferation IC50
pIC50: −log10 of the molar value.
quantity.name: pIC50

Would you please look over these solved cases?
COc1ccc(-c2n[nH]c3cc4c(cc23)CN([C@@H]2CCCN(Cc3ccc(F)cc3F)C2)C(=O)N4)cn1 [Example 273]; ≥ 6.60
Cc1cc(-c2n[nH]c3cc4c(cc23)CN([C@@H]2CCCN(c3ccc(F)cn3)C2)C(=O)N4)ccn1 [Example 199]; 6.00 to 6.60
CCC(c1ccccc1)c1cc2cc3c(-c4ccnc(C)c4)n[nH]c3cc2[nH]c1=O (centres unmarked) [Example 64]; ≥ 6.60
Cc1cc(-c2n[nH]c3cc4c(cc23)CN([C@@H]2CCCN(Cc3ccccc3Cl)C2)C(=O)N4)ccn1 [Example 158]; ≥ 6.60

Documented pIC50 of Cc1cc(-c2n[nH]c3cc4c(cc23)CN([C@@H]2CCN(Cc3c(F)cccc3F)C2)C(=O)N4)ccn1 [Example 147] : 6.00 to 6.60

Entry Cc1cc(-c2n[nH]c3cc4c(cc23)CN(C(C)c2nccs2)C(=O)N4)ccn1 (centres unmarked) [Example 234] — recorded pIC50 = 6.00 to 6.60

Recorded pIC50 (compound Cc1cc(-c2n[nH]c3cc4c(cc23)CN(Cc2ccc(F)cc2)C(=O)N4)ccn1 [Example 30] ): 6.00 to 6.60

Recorded pIC50 (compound Cc1cc(-c2n[nH]c3cc4[nH]c(=O)n(Cc5cccc(Cl)c5)c(=O)c4cc23)ccn1 [Example 24] ): < 6.00
